Catalogue of unfolding enthalpy (van 't Hoff) values
B1: Ribonuclease HI, P0A7Y4 (parent)
chain: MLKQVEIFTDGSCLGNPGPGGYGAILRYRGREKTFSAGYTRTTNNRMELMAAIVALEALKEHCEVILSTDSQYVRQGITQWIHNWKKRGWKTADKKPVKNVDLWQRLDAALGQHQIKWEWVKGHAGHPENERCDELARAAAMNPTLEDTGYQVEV

- Variants of: B1
- Assay setup: Escherichia coli (strain K12); pH 3; Thermal; CD; glycine-HCl 10 mM; reversible: yes; structure 2RN2; whole UniProt chain shown
Kindly answer with a numeric value in kcal/mol, unit omitted.

INSERT INTO assay_data (variant_designation, result) VALUES
  ('K91R D94E K95G', 105);

Exercise: Would you mind telling me what unfolding enthalpy (van 't Hoff) value was observed for `K95N` ?
Solution: 109

Exercise: `D94E` ?
Solution: 95.9
